Listing: switch fluorescence ratio of selected sequences
System: ATP;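 also: ATP exposure 15 min at 22 °C before imaging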
test.protocol: switch fluorescence ratio, 500 uM ATP over buffer (Cy3 cluster intensity, sum of 5 cycles each) (fold (ratio)); higher = stronger signal-on switching upon ATP binding; sequences stand for … in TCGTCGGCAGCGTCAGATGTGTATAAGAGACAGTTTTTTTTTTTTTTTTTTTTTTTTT…TC
settings: aptamer strand: ATP DNA aptamer (quencher-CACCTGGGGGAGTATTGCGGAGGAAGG + anchor), 100 nM annealed; ATP concentration: 500 uM
Please reply with the number alone, leaving off any unit.

INPUT: For ATP, give switch fluorescence ratio of the listed sequence: "TGTAAAGGGA"
OUTPUT: 0.998

INPUT: Fill: switch fluorescence ratio (ATP) for this sequence "TTTAGGTCAT"
OUTPUT: 1.01

INPUT: // output switch fluorescence ratio; input "TAAATTGGCG" ; system ATP;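 also: ATP exposure 15 min at 22 °C before imaging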
OUTPUT: 0.987

INPUT: Report the value of switch fluorescence ratio obtained on ATP for "TTCGATGCGG" .
OUTPUT: 1.02

INPUT: State measured switch fluorescence ratio of the sequence "GGAGATTTGT" with ATP.
OUTPUT: 1.01

INPUT: Fill: switch fluorescence ratio (ATP) for this sequence "ACGGTACGGA"
OUTPUT: 1.21

INPUT: Write down measured switch fluorescence ratio (ATP) for this sequence. "AGTGGTGGCG"
OUTPUT: 0.9

INPUT: Param request: switch fluorescence ratio | system ATP | item "GGAAGGGGCT"
OUTPUT: 1.08

INPUT: Look up and report measured switch fluorescence ratio (ATP) for the following sequence: "AGCAGCTGGG"
OUTPUT: 1.01

INPUT: Lab note: record switch fluorescence ratio of "AAATATACGA" tested on ATP.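 Also: ATP exposure 15 min at 22 °C before imaging.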
OUTPUT: 1.16

INPUT: Quote switch fluorescence ratio with test system ATP for "ATCGGAGGGA"
OUTPUT: 0.986

INPUT: Please report switch fluorescence ratio with ATP for item "TTAGCAGCTG" .
OUTPUT: 1

INPUT: Name the value of switch fluorescence ratio reported for "TTTTCCCTGC" when tested on ATP.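 Also: ATP exposure 15 min at 22 °C before imaging.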
OUTPUT: 1.24

INPUT: Give the observed switch fluorescence ratio of "CTTGGGGGCG" for ATP.
OUTPUT: 1.01

====

Tested on: ATP;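 also: ATP exposure 15 min at 22 °C before imaging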
test.protocol: switch fluorescence ratio, 500 uM ATP over buffer (Cy3 cluster intensity, sum of 5 cycles each) (fold (ratio)); higher = stronger signal-on switching upon ATP binding; sequences stand for … in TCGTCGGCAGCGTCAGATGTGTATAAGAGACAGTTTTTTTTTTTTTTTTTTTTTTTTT…TC
settings: aptamer strand: ATP DNA aptamer (quencher-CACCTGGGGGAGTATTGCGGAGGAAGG + anchor), 100 nM annealed; ATP concentration: 500 uM
recorded.endpoint: switch fluorescence ratio

Use the examples below as a reference point.
macromolecule.sequence	recorded.endpoint	observed.value
CGCAGGTTTG	switch fluorescence ratio	1.03
AATGCGCCGT	switch fluorescence ratio	1.01
GAGGCAGAGT	switch fluorescence ratio	1.04
GCTAAAGTCG	switch fluorescence ratio	0.981

INPUT: Give the reported value of switch fluorescence ratio for this record: "TTTTTGTGTT"
OUTPUT: 1

INPUT: Look up and state reported switch fluorescence ratio for "ACCGACTTGC"
OUTPUT: 1.09

INPUT: Dear colleague, please send me the reported switch fluorescence ratio for "TTTTTGTTTC" when you can.
OUTPUT: 1.02

INPUT: Return reported switch fluorescence ratio. Input sequence: "AAGTGGTCAC"
OUTPUT: 1.01

INPUT: Note down switch fluorescence ratio recorded for "AAAATTTTGG"
OUTPUT: 1

INPUT: Output switch fluorescence ratio of "TGTAAGTCTT"
OUTPUT: 0.966

INPUT: Read off the recorded switch fluorescence ratio for "TAAAAAATTT"
OUTPUT: 1.02

INPUT: Quote switch fluorescence ratio reported for "GGGATATGTT" please.
OUTPUT: 0.992

INPUT: Supply reported switch fluorescence ratio belonging to this sequence: "ACTACCGGCG"
OUTPUT: 1.09

INPUT: Tell me switch fluorescence ratio reported for "TGGGTAAGGG"
OUTPUT: 1.01

INPUT: Input "CTACTGGGGA" , output reported switch fluorescence ratio.
OUTPUT: 1.05

====

System: ATP;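 also: ATP exposure 15 min at 22 °C before imaging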
test.protocol: switch fluorescence ratio, 500 uM ATP over buffer (Cy3 cluster intensity, sum of 5 cycles each) (fold (ratio)); higher = stronger signal-on switching upon ATP binding; sequences stand for … in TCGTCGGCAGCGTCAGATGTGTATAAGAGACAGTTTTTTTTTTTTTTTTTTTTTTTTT…TC
settings: aptamer strand: ATP DNA aptamer (quencher-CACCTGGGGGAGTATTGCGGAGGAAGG + anchor), 100 nM annealed; ATP concentration: 500 uM
recorded.endpoint: switch fluorescence ratio
Give a plain numeric answer without units written out.

INPUT: Could you please provide reported switch fluorescence ratio for "TCTGACGTAC" ? Thanks!
OUTPUT: 2.57

INPUT: Return switch fluorescence ratio for the following sequence: "TGTGTCACCT"
OUTPUT: 1.09

INPUT: Fill in reported switch fluorescence ratio for this entry: "TCATTAGAAA"
OUTPUT: 1

INPUT: Check the records and state switch fluorescence ratio for "ATATTTCACT"
OUTPUT: 1.03

INPUT: Give recorded switch fluorescence ratio. "GGGGATTTGA"
OUTPUT: 0.995

INPUT: Write down switch fluorescence ratio measured for item "GTGAATAGGG"
OUTPUT: 0.989

====

Tested on: ATP;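 also: ATP exposure 15 min at 22 °C before imaging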
test.protocol: switch fluorescence ratio, 500 uM ATP over buffer (Cy3 cluster intensity, sum of 5 cycles each) (fold (ratio)); higher = stronger signal-on switching upon ATP binding; sequences stand for … in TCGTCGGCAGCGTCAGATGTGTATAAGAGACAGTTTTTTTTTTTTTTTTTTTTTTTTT…TC
settings: aptamer strand: ATP DNA aptamer (quencher-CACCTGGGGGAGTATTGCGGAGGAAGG + anchor), 100 nM annealed; ATP concentration: 500 uM
recorded.endpoint: switch fluorescence ratio
Just the number, please, no unit after it.

macromolecule.sequence	observed.value
TTTTTAGGGT	1
AATCATATTA	1.01
AGCGGTCAGT	0.978
GGGCATGCAT	1.02
TTATTTGTAC	1.05

INPUT: Hello, please tell me recorded switch fluorescence ratio for this one: "TTCAGAGCTT"
OUTPUT: 1

INPUT: State its switch fluorescence ratio for this sequence: "TGTAAAAGGT"
OUTPUT: 1.04

INPUT: Supply reported switch fluorescence ratio belonging to this sequence: "TGCGGGGCGG"
OUTPUT: 1.02

INPUT: Tell me measured switch fluorescence ratio for "GCTCTGTGGG" please.
OUTPUT: 0.967

INPUT: For the sequence "AGATGTATAG" , report switch fluorescence ratio.
OUTPUT: 1.03

INPUT: Item "GCGCCCAACT" : provide switch fluorescence ratio
OUTPUT: 1.03

INPUT: Annotate the sequence "TGTGGTCTGA" with its measured switch fluorescence ratio.
OUTPUT: 1.01

INPUT: Determine its reported switch fluorescence ratio: "CTTATCTCTT"
OUTPUT: 1.02

INPUT: Look up switch fluorescence ratio of "GGCAGGGATT" and report it.
OUTPUT: 1.01

INPUT: Supply switch fluorescence ratio value. Item: "TATACCATTT"
OUTPUT: 1.01

INPUT: Supply switch fluorescence ratio value. Item: "TGGGAGAGTG"
OUTPUT: 0.994

INPUT: Entry "TCTGCTTCAG" needs its switch fluorescence ratio filled in; supply it.
OUTPUT: 0.973

INPUT: Name the recorded switch fluorescence ratio of the sequence listed here: "GGTATCTGAT"
OUTPUT: 1.03

INPUT: Give the reported switch fluorescence ratio for this sequence. "TTGTTGTAGG"
OUTPUT: 0.993

INPUT: Name the recorded switch fluorescence ratio of the item "TAAATCGTTG" in your answer.
OUTPUT: 0.991

INPUT: Give the reported value of switch fluorescence ratio for this record: "TAAGGCGTAG"
OUTPUT: 1.08

====

Tested on: ATP;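 also: ATP exposure 15 min at 22 °C before imaging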
test.protocol: switch fluorescence ratio, 500 uM ATP over buffer (Cy3 cluster intensity, sum of 5 cycles each) (fold (ratio)); higher = stronger signal-on switching upon ATP binding; sequences stand for … in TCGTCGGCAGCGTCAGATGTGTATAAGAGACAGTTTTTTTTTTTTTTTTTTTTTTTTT…TC
settings: aptamer strand: ATP DNA aptamer (quencher-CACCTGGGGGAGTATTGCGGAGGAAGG + anchor), 100 nM annealed; ATP concentration: 500 uM
Each record here notes measured switch fluorescence ratio.
Lab note: jot the number down without any unit.

macromolecule.sequence	target.system	switch fluorescence ratio
CGACAAAAAT	ATP	1.89

INPUT: Hello, please tell me recorded switch fluorescence ratio for this one: "TTGGGAGATG"
OUTPUT: 1.1

INPUT: Please report switch fluorescence ratio for the following sequence: "GCGGGGCTCA"
OUTPUT: 1.12

INPUT: Answer with the recorded switch fluorescence ratio of "ATAAAACAAG" only.
OUTPUT: 0.99

INPUT: Annotate the sequence "TGTGGGGTCT" with its measured switch fluorescence ratio.
OUTPUT: 1.02

INPUT: Indicate the recorded switch fluorescence ratio value for this sequence: "CGGTTATGGC"
OUTPUT: 0.978

INPUT: Note switch fluorescence ratio for the sequence shown: "TAGGATCCC"
OUTPUT: 0.981

INPUT: Output switch fluorescence ratio of "TGACCCTTAG"
OUTPUT: 0.987

INPUT: Give the reported switch fluorescence ratio for this sequence. "AGGGGGGCAC"
OUTPUT: 0.984

INPUT: Indicate its recorded switch fluorescence ratio; the sequence in question is "GGGCAAGAGT"
OUTPUT: 1.03

INPUT: Supply recorded switch fluorescence ratio for "ATTAGGTTGG" here.
OUTPUT: 0.987

INPUT: Read off the recorded switch fluorescence ratio for "TAAGTTGTTG"
OUTPUT: 0.993

INPUT: For the sequence "GGCCTAAAAG" , report switch fluorescence ratio.
OUTPUT: 0.978

INPUT: Tell me its switch fluorescence ratio given "GACGACATGT" as the entry.
OUTPUT: 1.09

INPUT: State, in one line, measured switch fluorescence ratio of "GTCAGCCTTT"
OUTPUT: 0.983

INPUT: // fetch switch fluorescence ratio given entry "AGGGTTTCAG"
OUTPUT: 0.98

INPUT: Report measured switch fluorescence ratio; entry is "GGGGTCGGGA"
OUTPUT: 0.999

INPUT: Give switch fluorescence ratio for the following sequence: "TCTATTCGGG"
OUTPUT: 0.948

INPUT: Name the recorded switch fluorescence ratio of the sequence listed here: "TGGAGTAGGA"
OUTPUT: 1.04

INPUT: Return switch fluorescence ratio for the following sequence: "ATAATTCGGT"
OUTPUT: 0.985
